- Tested on: ACHN renal
- TEST: NCI tumour cell line growth inhibition, 48 h
ASSAY_METRIC: TGI

Some solved entries appear below for comparison.
Given the molecule N#Cc1cccc(C=NC23CC4CC(CC(C4)C2)C3)c1 , write its reported TGI.
> 100 µM

Report TGI for Cc1c2c(n(CC(c3ccccc3)c3ccccc3)c1C)NN=C(C#N)S2(=O)=O
> 100 µM

For CC1=Nc2c([nH]c(=S)[nH]c2=O)NC(c2c(Cl)cccc2Cl)C1 (stereo unspecified) , write its TGI.
11 µM

Supply measured TGI of CNc1ncnc2c1nc(NC1CCCC1)n2C1OC(CO)C(O)C1O (stereo unspecified) in your reply.
> 100 µM

Give TGI for the following molecule: CCn1c2ccccc2c2c(-c3ccccc3)cc3c(c21)C(=O)N(c1ccccc1)C3=O
> 100 µM

Others:
Output measured TGI for this item: CC(=O)c1ccc(NC(=O)COC(=O)c2cccc3c(=O)c4ccccc4[nH]c23)cc1
> 100 µM

Give the reported value of TGI for this record: CCN1CCC(CNC(=O)c2ccc(N)cc2)N1CC (stereo unspecified)
> 100 µM

Give recorded TGI. Cc1nc2sc(C(=O)c3ccc(Cl)cc3)c(N)c2c(-c2ccccc2Cl)c1C(=O)Nc1ccccc1
67.7 µM

Specify measured TGI for COc1ccc(-c2c(-c3ccccc3)c(C)nc3nc(SC)nc(SC)c23)cc1OC .
> 100 µM

Annotate the molecule N/C1=C/C(=O)NC(=O)c2c(c3ccccc3oc2=O)C1 with its measured TGI.
> 100 µM

Determine from records and report TGI for COc1c(N2CCN(CN3C(=O)C(=O)c4cc(Cl)ccc43)C(C)C2)c(F)cc2c(=O)c(C(=O)O)cn(C3CC3)c12 (stereo unspecified)
> 100 µM
